molecular target: T1, apical domain of human CD71 (human, UniProt P02786 189-383, limits assumed); test: primary ELISA; also: test concentration or dose not given here
T1 construct: domain: apical domain; Screen 4 panned on human apical domains, the ELISA text says only 'apical domain'
T1 sequence (P02786 189-383 limits assumed): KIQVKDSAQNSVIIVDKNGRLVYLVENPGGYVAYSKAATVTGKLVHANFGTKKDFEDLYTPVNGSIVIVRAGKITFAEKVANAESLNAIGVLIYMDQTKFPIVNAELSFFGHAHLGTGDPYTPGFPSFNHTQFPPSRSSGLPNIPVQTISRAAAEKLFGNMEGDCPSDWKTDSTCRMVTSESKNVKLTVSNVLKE
Recorded RLU, one value per entry.

>  <binder>
CD71-binding FN3 domain of SEQ ID NO: 449 (designed binder) MLPAPKNLVVSRVTEDSARLSWTAPDAAFDSFYIAYQELSLWGEAIVLTVPGSERSYDLTGLKPGTEYNVTIQGVKGGFPSLPLAAQFTT

>  <RLU, RLU>
6.51e+06

$$$$
>  <binder>
CD71-binding FN3 domain of SEQ ID NO: 510 (designed binder) MLPAPKNLVVSRVTEDSARLSWTAPDAAFDSFFIAYGESPESGEAIVLTVPGSERSYDLTGLKPGTEYLVWIAGVKGGYYSDPLSAIFTT

>  <RLU, RLU>
5.21e+06

$$$$
>  <binder>
CD71-binding FN3 domain of SEQ ID NO: 487 (designed binder) MLPAPKNLVVSRVTEDSARLSWTAPDAAFDSFFIGYLEPQPPGEAIGLRVPGSERSYDLTGLKPGTEYNVTIQGVKGGFPSEPLIADFTT

>  <RLU, RLU>
3.43e+06

$$$$
>  <binder>
CD71-binding FN3 domain of SEQ ID NO: 539 (designed binder) MLPAPKNLVVSRVTEDSARLSWTAPDAAFDSFFIGYLEPQPPGEAIHLFVPGSERSYDLTGLKPGTEYNVTIQGVKGGFPSDPLHAAFTT

>  <RLU, RLU>
6.08e+06

$$$$
